Reported Ki by item:
# assay target: DOR (delta opioid receptor), DOR1-CHO (Mus musculus, UniProt P32300)
# Construct: expressed in transfected cells; host or cells: CHO
# Sequence (P32300 whole entry): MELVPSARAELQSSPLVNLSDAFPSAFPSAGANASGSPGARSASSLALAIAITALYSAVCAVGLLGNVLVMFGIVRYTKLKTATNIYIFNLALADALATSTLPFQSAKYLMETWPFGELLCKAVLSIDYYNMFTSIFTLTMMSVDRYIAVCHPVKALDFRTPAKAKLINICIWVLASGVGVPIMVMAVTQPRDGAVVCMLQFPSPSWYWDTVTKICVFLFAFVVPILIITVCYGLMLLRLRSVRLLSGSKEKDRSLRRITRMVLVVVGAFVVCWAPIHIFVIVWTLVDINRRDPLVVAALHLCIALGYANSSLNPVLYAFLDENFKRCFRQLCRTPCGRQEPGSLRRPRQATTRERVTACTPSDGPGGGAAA
# test details: Competition binding in DOR-CHO, 125I-SMGP1 radioligand

Solved entries:
The reported DOR (delta opioid receptor), DOR1-CHO (Mus musculus, UniProt P32300) Ki of C=CCN1CCC23c4c5ccc(OC)c4OC2C(NC(=O)c2cccc(I)c2)CCC3(O)C1C5 (stereo not drawn) is > 100 nM

Reading of Ki for C=CCN1CCC23c4c5ccc(O)c4OC2C(NC(=O)C24CC6CC(CC(C6)C2)C4)CCC3(O)C1C5 (stereo not drawn) with DOR (delta opioid receptor), DOR1-CHO (Mus musculus, UniProt P32300): > 100 nM

More entries:
Tested on DOR (delta opioid receptor), DOR1-CHO (Mus musculus, UniProt P32300): C=CCN1CCC23c4c5ccc(O)c4OC2C(NC(=O)C2CCCCC2)CCC3(O)C1C5 (stereo not drawn) . Observed Ki: > 100 nM
